target: UniProt P14416
Sequence (P14416 whole entry): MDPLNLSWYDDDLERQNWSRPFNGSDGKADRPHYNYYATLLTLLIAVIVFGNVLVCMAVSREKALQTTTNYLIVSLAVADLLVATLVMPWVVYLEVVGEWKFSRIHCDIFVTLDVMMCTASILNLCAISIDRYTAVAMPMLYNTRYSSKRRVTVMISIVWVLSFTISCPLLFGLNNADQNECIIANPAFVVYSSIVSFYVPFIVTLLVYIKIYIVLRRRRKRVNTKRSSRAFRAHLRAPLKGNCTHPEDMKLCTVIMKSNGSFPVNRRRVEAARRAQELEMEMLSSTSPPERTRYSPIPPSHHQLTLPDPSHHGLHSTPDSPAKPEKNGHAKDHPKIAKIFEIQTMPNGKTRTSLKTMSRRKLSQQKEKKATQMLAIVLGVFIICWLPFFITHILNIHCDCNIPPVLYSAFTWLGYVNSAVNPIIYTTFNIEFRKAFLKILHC
pKi: −log10 of the molar value.
QUANTITY_NAME: pKi

Report pKi for COc1ccc2c(c1)CCCN1CCCc3ccccc3C21 (stereo not drawn) tested on UniProt P14416. < 5.00

Report pKi for COc1cc2c(cc1Cl)CCN1CCCc3ccccc3C21 (stereo not drawn) tested on UniProt P14416. < 5.00

Now, please, on to the next molecule.
Report pKi for COc1ccc(CCN2CCCc3ccccc3C2)cc1Cl tested on UniProt P14416. < 5.00

Source: ChEMBL document CHEMBL1148752
